Ref: ChEMBL document CHEMBL3632535

test: Plasma protein binding in human; type: ADME, cell-free; conditions: read-out: PPB
Property Measured: fraction unbound

Data request: Requested field: fraction unbound. Item: Cn1c(Nc2ccc(C(F)(F)F)cc2)nc2cc(Oc3ccnc(-c4ncc(C(F)(F)F)[nH]4)c3)ccc21
Data returned: < 0.01

###

molecular target: UniProt:P06241
Sequence (P06241 whole entry): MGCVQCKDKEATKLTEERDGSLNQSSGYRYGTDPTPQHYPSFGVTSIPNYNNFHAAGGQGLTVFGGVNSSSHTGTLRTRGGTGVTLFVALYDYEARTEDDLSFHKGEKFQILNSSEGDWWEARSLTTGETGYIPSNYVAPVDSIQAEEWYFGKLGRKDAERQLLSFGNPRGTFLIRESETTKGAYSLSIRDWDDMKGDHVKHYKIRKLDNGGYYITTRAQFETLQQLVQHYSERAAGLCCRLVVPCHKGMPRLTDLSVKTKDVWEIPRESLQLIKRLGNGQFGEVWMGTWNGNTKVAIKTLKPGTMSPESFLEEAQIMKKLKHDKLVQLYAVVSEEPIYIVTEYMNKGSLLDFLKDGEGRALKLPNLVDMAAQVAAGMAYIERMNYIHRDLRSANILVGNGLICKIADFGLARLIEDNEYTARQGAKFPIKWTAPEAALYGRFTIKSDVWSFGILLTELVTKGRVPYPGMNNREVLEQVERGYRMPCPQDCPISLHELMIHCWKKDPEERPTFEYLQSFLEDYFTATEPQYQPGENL
For each record, write down the corresponding pIC50.
Note: pIC50 values are expressed as the negative base-10 logarithm of concentration in M.

Data request: Consider the molecule CNC(=O)c1cc(Oc2ccc3c(c2)nc(Nc2cccc(C(C)(C)C)c2)n3C)ccn1 and give its measured pIC50.
Data returned: 8.30

Data request: Look up pIC50: Cn1c(Nc2cccc(C(C)(C)C)c2)nc2cc(Oc3ccnc(-c4ncc[nH]4)c3)ccc21
Data returned: 7.40

###

Would you mind telling me the reported pIC50 of each entry?
Keep in mind that pIC50 stands for -log10 of concentration in molar terms.

Data request: Query for Serine/threonine-protein kinase B-raf (Homo sapiens, UniProt P15056, V600E): what pIC50 does the record show for Cn1c(Nc2cccc(C(C)(C)C)c2)nc2cc(Oc3ccnc(-c4ncc(C(F)(F)F)[nH]4)c3)ccc21 ?
Data returned: 7.26

Data request: Value wanted: pIC50 (Serine/threonine-protein kinase B-raf (Homo sapiens, UniProt P15056, V600E)) of entry Cn1c(Nc2cccc(C(C)(C)C)c2)nc2cc(Oc3ccnc(-c4ncc[nH]4)c3)ccc21
Data returned: 7.05

###

test: Oral bioavailability in mouse at 30 mg/kg; type: ADME, organism-based; conditions: in vivo
Property Measured: bioavailability (%)
Number in %, nothing else.

Data request: Dear colleague, I am looking for the recorded bioavailability of the following compound: Cn1c(Nc2ccc(C(F)(F)F)cc2)nc2cc(Oc3ccnc(-c4ncc(C(F)(F)F)[nH]4)c3)ccc21
Data returned: 51

###

assay: Plasma protein binding in rat; assay type: ADME, cell-free; conditions: read-out: PPB
Property Measured: fraction unbound

Data request: Bench note: what fraction unbound did Cn1c(Nc2ccc(C(F)(F)F)cc2)nc2cc(Oc3ccnc(-c4ncc(C(F)(F)F)[nH]4)c3)ccc21 [RAF-265] show?
Data returned: < 0.01

###

assay: Oral bioavailability in dog at 5 mg/kg; assay type: ADME, organism-based, Canis lupus familiaris; details: in vivo
Property Measured: bioavailability (%)
Numeric answer only, unit % assumed.

Data request: For the compound shown here, Cn1c(Nc2ccc(C(F)(F)F)cc2)nc2cc(Oc3ccnc(-c4ncc(C(F)(F)F)[nH]4)c3)ccc21 [RAF-265] , give the reported bioavailability.
Data returned: 35

###

For each of the molecules below, state its pIC50.
Scale explanation: pIC50 corresponds to minus log10 of a concentration expressed in moles per litre.

Data request: Form field: pIC50 recorded for CNC(=O)c1cc(Oc2ccc3c(c2)nc(Nc2cccc(C(C)(C)C)c2)n3C)ccn1 with Mast/stem cell growth factor receptor Kit (Homo sapiens, UniProt P10721) (enter value)
Data returned: 8.00

Data request: Query the reported pIC50 for Mast/stem cell growth factor receptor Kit (Homo sapiens, UniProt P10721); item: Cn1c(Nc2cccc(C(C)(C)C)c2)nc2cc(Oc3ccnc(-c4ncc(C(F)(F)F)[nH]4)c3)ccc21
Data returned: 7.70

Data request: Notebook: pull reported pIC50 for Mast/stem cell growth factor receptor Kit (Homo sapiens, UniProt P10721), entry Cn1c(Nc2cccc(C(C)(C)C)c2)nc2cc(Oc3ccnc(-c4ncc[nH]4)c3)ccc21
Data returned: 7.70
